- Tested on: Candida krusei ATCC 6258, CCM 8271
- procedureSummary: Antifungal microdilution broth method (EUCAST)
- Type: cell-based
- conditionContext: Pichia kudriavzevii, read-out: MIC CK (Candida krusei)
quantity: MIC (µM)
Your answer is read as µM, so omit the unit and give the number.

Some compounds with recorded MIC:
INSERT INTO results (testsmiles, quantityunit, recordedresult) VALUES
  ('CCCCCCNc1cnc(C(=O)Nc2ccc(C)cc2)cn1', 'µM', 125),
  ('CCCNc1cnc(C(=O)Nc2cccc(O)c2)cn1', 'µM', 62.5);

Proceed to the following item.
Query :: Could you please provide reported MIC for CCCCCNc1cnc(C(=O)Nc2cccc(C(F)(F)F)c2)cn1 ? Thanks!
Result :: 62.5

====

- Test system: Aspergillus fumigatus ATCC 204305
- procedureSummary: Antifungal microdilution broth method (EUCAST)
- Format: cell-based
- conditionContext: ATCC204305, 48 h, read-out: MIC AF
A collection of molecules and their measured MIC

INSERT INTO measurements (testsmiles, targetorsystem, recordedresult) VALUES
  ('CCCCCCCCNc1cnc(C(=O)Nc2cccc(O)c2)cn1', 'Aspergillus fumigatus ATCC 204305', '> 125 µM');

Query :: Could you please provide reported MIC for CCCCCNc1cnc(C(=O)Nc2ccc(O)cc2)cn1 ? Thanks!
Result :: > 125 µM

Query :: Could you please provide reported MIC for CCCCCCNc1cnc(C(=O)Nc2cccc(C(F)(F)F)c2)cn1 ? Thanks!
Result :: > 500 µM

Query :: Could you please provide reported MIC for CCCCNc1cnc(C(=O)Nc2cccc(C(F)(F)F)c2)cn1 ? Thanks!
Result :: > 125 µM

Query :: Could you please provide reported MIC for CCCCCCCNc1cnc(C(=O)Nc2cccc(C(F)(F)F)c2)cn1 ? Thanks!
Result :: > 500 µM

Query :: Could you please provide reported MIC for CCCCCNc1cnc(C(=O)Nc2ccc(C)cc2)cn1 ? Thanks!
Result :: > 125 µM

Query :: Could you please provide reported MIC for CCCCCCNc1cnc(C(=O)Nc2ccc(CC)cc2)cn1 ? Thanks!
Result :: > 125 µM

Query :: Could you please provide reported MIC for CCCCCCCNc1cnc(C(=O)Nc2ccc(C)cc2)cn1 ? Thanks!
Result :: > 125 µM

Query :: Could you please provide reported MIC for CCCCNc1cnc(C(=O)Nc2cccc(O)c2)cn1 ? Thanks!
Result :: > 125 µM

Query :: Could you please provide reported MIC for CCCCCCCCNc1cnc(C(=O)Nc2cccc(C(F)(F)F)c2)cn1 ? Thanks!
Result :: > 500 µM

Query :: Could you please provide reported MIC for CCCCCCCNc1cnc(C(=O)Nc2ccc(O)cc2)cn1 ? Thanks!
Result :: > 250 µM

Query :: Could you please provide reported MIC for CCCNc1cnc(C(=O)Nc2ccc(CC)cc2)cn1 ? Thanks!
Result :: > 125 µM

Query :: Could you please provide reported MIC for CCCNc1cnc(C(=O)Nc2ccc(O)cc2)cn1 ? Thanks!
Result :: > 500 µM

Query :: Could you please provide reported MIC for CCCCCNc1cnc(C(=O)Nc2cccc(C(F)(F)F)c2)cn1 ? Thanks!
Result :: > 125 µM

Query :: Could you please provide reported MIC for CCCNc1cnc(C(=O)Nc2cccc(O)c2)cn1 ? Thanks!
Result :: > 125 µM

Query :: Could you please provide reported MIC for CCCCNc1cnc(C(=O)Nc2ccc(O)cc2)cn1 ? Thanks!
Result :: > 250 µM

====

- Tested on: Klebsiella pneumoniae ATCC 10031, CCM 4415
- procedureSummary: Antibacterial microdilution broth method (EUCAST)
- conditionContext: 48h
quantity: MIC KP

Query :: Could you please provide reported MIC KP for CCCCCNc1cnc(C(=O)Nc2cccc(C(F)(F)F)c2)cn1 ? Thanks!
Result :: > 500 µM

Query :: Could you please provide reported MIC KP for CCCCCCCCNc1cnc(C(=O)Nc2cccc(O)c2)cn1 ? Thanks!
Result :: > 125 µM

Query :: Could you please provide reported MIC KP for CCCCCCNc1cnc(C(=O)Nc2cccc(C(F)(F)F)c2)cn1 ? Thanks!
Result :: > 500 µM

Query :: Could you please provide reported MIC KP for CCCCCCCNc1cnc(C(=O)Nc2ccc(CC)cc2)cn1 ? Thanks!
Result :: > 500 µM

Query :: Could you please provide reported MIC KP for CCCCCCCCNc1cnc(C(=O)Nc2ccc(C)cc2)cn1 ? Thanks!
Result :: > 125 µM

Query :: Could you please provide reported MIC KP for CCCCCCNc1cnc(C(=O)Nc2ccc(CC)cc2)cn1 ? Thanks!
Result :: > 500 µM

Query :: Could you please provide reported MIC KP for CCCNc1cnc(C(=O)Nc2ccc(CC)cc2)cn1 ? Thanks!
Result :: > 125 µM

Query :: Could you please provide reported MIC KP for CCCCCCCCNc1cnc(C(=O)Nc2cccc(C(F)(F)F)c2)cn1 ? Thanks!
Result :: > 500 µM

Query :: Could you please provide reported MIC KP for CCCCCCCNc1cnc(C(=O)Nc2ccc(O)cc2)cn1 ? Thanks!
Result :: > 500 µM

Query :: Could you please provide reported MIC KP for CCCCNc1cnc(C(=O)Nc2ccc(O)cc2)cn1 ? Thanks!
Result :: > 500 µM

Query :: Could you please provide reported MIC KP for CCCCNc1cnc(C(=O)Nc2ccc(C)cc2)cn1 ? Thanks!
Result :: > 125 µM

Query :: Could you please provide reported MIC KP for CCCNc1cnc(C(=O)Nc2ccc(O)cc2)cn1 ? Thanks!
Result :: > 500 µM

====

- System: Trichophyton interdigitale ATCC 9533, CCM 8377
- procedureSummary: Antifungal microdilution broth method (EUCAST)
- Format: cell-based
- conditionContext: 72 h, read-out: MIC TI
A collection of compounds and their measured MIC

Some compounds with recorded MIC:
INSERT INTO assay_data (compound, recordedresult) VALUES
  ('CCCCCNc1cnc(C(=O)Nc2ccc(O)cc2)cn1 [Compound 3c]', '> 125 µM'),
  ('CCCCNc1cnc(C(=O)Nc2cccc(O)c2)cn1 [Compound 2b]', '> 125 µM'),
  ('CCCCCCCNc1cnc(C(=O)Nc2ccc(C)cc2)cn1 [Compound 4e]', '> 125 µM'),
  ('CCCCCCCNc1cnc(C(=O)Nc2ccc(O)cc2)cn1 [Compound 3e]', '> 250 µM'),
  ('CCCCCNc1cnc(C(=O)Nc2cccc(C(F)(F)F)c2)cn1 [Compound 1c]', '> 125 µM');

Query :: Could you please provide reported MIC for CCCCCCNc1cnc(C(=O)Nc2ccc(C)cc2)cn1 [Compound 4d] ? Thanks!
Result :: > 125 µM

Query :: Could you please provide reported MIC for CCCNc1cnc(C(=O)Nc2ccc(O)cc2)cn1 [Compound 3a] ? Thanks!
Result :: > 500 µM

Query :: Could you please provide reported MIC for CCCCNc1cnc(C(=O)Nc2cccc(C(F)(F)F)c2)cn1 [Compound 1b] ? Thanks!
Result :: > 125 µM

Query :: Could you please provide reported MIC for CCCCCCCCNc1cnc(C(=O)Nc2cccc(C(F)(F)F)c2)cn1 [Compound 1f] ? Thanks!
Result :: > 500 µM

Query :: Could you please provide reported MIC for CCCCNc1cnc(C(=O)Nc2ccc(O)cc2)cn1 [Compound 3b] ? Thanks!
Result :: > 250 µM

====

A collection of compounds and their measured MIC
- System: Pseudomonas aeruginosa ATCC 27853, CCM 3955
- procedureSummary: Antibacterial microdilution broth method (EUCAST)
- Assay type: cell-based
- conditionContext: 120 h, read-out: MIC PA

Some compounds with recorded MIC:
INSERT INTO assay_data (testsmiles, quantity, recordedresult) VALUES
  ('CCCCNc1cnc(C(=O)Nc2ccc(C)cc2)cn1', 'MIC', '> 125 µM'),
  ('CCCCCNc1cnc(C(=O)Nc2cccc(C(F)(F)F)c2)cn1', 'MIC', '> 500 µM'),
  ('CCCCCCCCNc1cnc(C(=O)Nc2cccc(O)c2)cn1', 'MIC', '> 125 µM'),
  ('CCCCCCNc1cnc(C(=O)Nc2ccc(O)cc2)cn1', 'MIC', '> 500 µM');

Query :: Could you please provide reported MIC for CCCCNc1cnc(C(=O)Nc2cccc(O)c2)cn1 ? Thanks!
Result :: > 500 µM

Query :: Could you please provide reported MIC for CCCNc1cnc(C(=O)Nc2cccc(C(F)(F)F)c2)cn1 ? Thanks!
Result :: > 500 µM

Query :: Could you please provide reported MIC for CCCCCCNc1cnc(C(=O)Nc2ccc(C)cc2)cn1 ? Thanks!
Result :: > 500 µM

Query :: Could you please provide reported MIC for CCCCCCCNc1cnc(C(=O)Nc2cccc(C(F)(F)F)c2)cn1 ? Thanks!
Result :: > 500 µM

Query :: Could you please provide reported MIC for CCCCCNc1cnc(C(=O)Nc2ccc(C)cc2)cn1 ? Thanks!
Result :: > 500 µM

Query :: Could you please provide reported MIC for CCCCNc1cnc(C(=O)Nc2ccc(O)cc2)cn1 ? Thanks!
Result :: > 500 µM

Query :: Could you please provide reported MIC for CCCCCCNc1cnc(C(=O)Nc2cccc(C(F)(F)F)c2)cn1 ? Thanks!
Result :: > 500 µM

Query :: Could you please provide reported MIC for CCCCCCCCNc1cnc(C(=O)Nc2ccc(C)cc2)cn1 ? Thanks!
Result :: > 125 µM
